tested on: Candida albicans; test: Antifungal activity against Candida albicans ATCC 24433 assessed as fractional inhibition concentration ratio in presence of fluconazole by checkerboard assay; type: functional
# Ratio listing for each entry below
measured-property: Ratio

chem-smiles	comparison-sign	reported
CC(C)[C@@]1(C(=O)O)OC(=O)/C(=C/c2ccccc2)O1	=	0.07
C=C(C)[C@@H]1[C@H](O)C[C@@]2(C)OC3=C(C[C@@H]12)C(=O)[C@]1(O)CO[C@H]3C1	<	0.25
Oc1cccc2c1[C@H](O)[C@@H]1O[C@@H]1C21Oc2cccc3cccc(c23)O1	=	0.26
C[C@](O)(CO)[C@@H]1CC[C@@]2(C)OC3=C(C[C@@H]12)C(=O)[C@]1(O)CO[C@H]3C1	<	0.25
CC(C)[C@H]1OC(=O)[C@H](Cc2ccccc2)N(C)C(=O)[C@@H](C(C)C)OC(=O)[C@H](Cc2ccccc2)N(C)C(=O)[C@@H](C(C)C)OC(=O)[C@H](Cc2ccccc2)N(C)C1=O	<	0.013
C[C@@]12CC[C@@H]([C@](C)(O)CO)[C@@H]1CC1=C(O2)[C@@H]2C[C@@](O)(CO2)C1=O	=	0.11

---

test system: Escherichia coli; assay: Antibacterial activity against Escherichia coli ATCC 25922 by broth microdilution method; type: functional
# MIC listing for each entry below

chem-smiles	MIC
C=C(C)[C@@H]1[C@H](O)C[C@@]2(C)OC3=C(C[C@@H]12)C(=O)[C@]1(O)CO[C@H]3C1	88.3 µg/mL
C=C(C)[C@@H]1CC[C@@]2(C)OC3=C(C[C@@H]12)C(=O)[C@](O)(CO)C[C@@H]3O	> 100 µg/mL
C=C(C)[C@@H]1CC[C@@]2(C)OC3=C(C[C@@H]12)C(=O)[C@H](OC)C[C@@H]3O	> 100 µg/mL
CC(C)(O)[C@@H]1CC[C@@]2(C)OC3=C(C[C@@H]12)C(=O)[C@]1(O)CO[C@H]3C1	35.9 µg/mL
C=C(C)[C@@H]1CC[C@@]2(C)OC3=C(C[C@@H]12)C(=O)[C@]1(O)CO[C@H]3C1	> 100 µg/mL
Oc1cccc2c1[C@H](O)[C@@H]1O[C@@H]1C21Oc2cccc3cccc(c23)O1	> 100 µg/mL
CN[C@@H]1[C@H](O[C@H]2[C@H](O[C@H]3[C@H](O)[C@@H](O)[C@H](N=C(N)N)[C@@H](O)[C@@H]3N=C(N)N)O[C@@H](C)[C@]2(O)C=O)O[C@@H](CO)[C@H](O)[C@H]1O	2.4 µg/mL
C[C@@]12CC[C@@H]([C@](C)(O)CO)[C@@H]1CC1=C(O2)[C@@H]2C[C@@](O)(CO2)C1=O	78 µg/mL

---

tested on: Candida albicans; experiment: Antibiofilm activity against Candida albicans ATCC 24433 after 24 hrs in presence of fluconazole by XTT-based colorimetric assay; format: functional; conditions: ATCC 24433, 24 h

chem-smiles	tested-on	MIC80 / µg/mL
C=C(C)[C@@H]1[C@H](O)C[C@@]2(C)OC3=C(C[C@@H]12)C(=O)[C@]1(O)CO[C@H]3C1	Candida albicans	40
C=C(C)[C@@H]1C[C@H](O)[C@@]2(C)OC3=C(C[C@@H]12)C(=O)[C@](O)(CO)C[C@@H]3O	Candida albicans	80
CC(C)[C@@]1(C(=O)O)OC(=O)/C(=C/c2ccccc2)O1	Candida albicans	20
C[C@](O)(CO)[C@@H]1CC[C@@]2(C)OC3=C(C[C@@H]12)C(=O)[C@]1(O)CO[C@H]3C1	Candida albicans	80
